experiment: Cytotoxicity against mouse RAW264.7 cells assessed as survival rate at 200 uM measured in presence of LPS by MTT assay relative to control; type: cell-based; conditions: read-out: Survival
# maps each entry to its viability at 200 µM
Return type: number; implicit unit %.

Look over these answered cases.
C=C1[C@@H]2[C@@H]3O[C@@H]3C(C)(C)[C@@]2(O)[C@H](O)C[C@]23C[C@@](C)(O)[C@H](CC[C@@H]12)[C@H]3O : 92
CC(=O)O[C@@H]1C[C@]23C[C@@](C)(O)[C@H](CC[C@H]2[C@@](C)(O)[C@@H]2[C@@H](O)[C@H](O)C(C)(C)[C@@]12O)[C@H]3O : 99.8
C=C1[C@@H]2CC[C@@H]3C[C@@]2(C[C@@H](O)[C@@]2(O)[C@H]1C[C@H](O)C2(C)C)C[C@@]3(C)O : 93.8
CC(=O)O[C@@H]1C[C@]23C[C@@](C)(O)[C@H](CC[C@H]2[C@@](C)(O)[C@@H]2[C@@H]4O[C@@H]4C(C)(C)[C@@]12O)[C@H]3O : 93.6
C[C@@H]1C[C@H]2[C@@H]3CCC4=CC(=O)C=C[C@]4(C)[C@@]3(F)[C@@H](O)C[C@]2(C)[C@@]1(O)C(=O)CO : 97.1
CC1(C)[C@@H](O)[C@H](O)[C@H]2[C@](C)(O)[C@@H]3CC[C@@H]4[C@@H](O)[C@@]3(C[C@@H](O)[C@@]21O)C[C@@]4(C)O : 90.4

Now for a further compound.
Ask: Given the entry CC(=O)O[C@@H]1C[C@]23C[C@@](C)(O)[C@H](CC[C@H]2[C@@](C)(O)[C@@H]2[C@@H](Cl)[C@H](O)C(C)(C)[C@@]12O)[C@H]3O , report its measured viability at 200 µM.
Reply: 95.2

###

test: Cytotoxicity against mouse RAW264.7 cells assessed as survival rate at 200 uM measured in absence of LPS by MTT assay relative to control; assay type: cell-based; conditions: read-out: Survival
experimental.readout: viability at 200 µM
Hey, just the number and the unit after it is fine.

CC1(C)[C@@H](O)[C@H](O)[C@H]2[C@](C)(O)[C@@H]3CC[C@@H]4[C@@H](O)[C@@]3(C[C@@H](O)[C@@]21O)C[C@@]4(C)O : 97%
CC(=O)O[C@@H]1C[C@]23C[C@@](C)(OC(C)=O)[C@H](CC[C@H]2[C@@](C)(O)[C@@H]2[C@@H]4O[C@@H]4C(C)(C)[C@@]12O)[C@H]3O : 98.9%

Ask: Given the entry CC(=O)O[C@@H]1[C@H]2CC[C@H]3[C@@](C)(O)[C@@H]4[C@@H](O)[C@H](O)C(C)(C)[C@@]4(O)[C@H](OC(C)=O)C[C@@]13C[C@@]2(C)O , report its measured viability at 200 µM.
Reply: 97.4%

Ask: Next record, please: CC1(C)[C@H]2O[C@H]2[C@H]2[C@](C)(O)[C@@H]3CC[C@@H]4[C@@H](O)[C@@]3(C[C@@H](O)[C@@]21O)C[C@@]4(C)O
Reply: 96.5%

Ask: Next record, please: C=C1[C@@H]2[C@@H]3O[C@@H]3C(C)(C)[C@@]2(O)[C@H](O)C[C@]23C[C@@](C)(O)[C@H](CC[C@@H]12)[C@H]3O
Reply: 90.3%

###

# maps each entry to its viability at 200 µM
test: Cytotoxicity against mouse RAW264.7 cells assessed as survival rate at 200 uM measured in absence of LPS by MTT assay relative to control; type: cell-based; conditions: read-out: Survival
Hey, just the number and the unit after it is fine.

Look over these answered cases.
C[C@@H]1C[C@H]2[C@@H]3CCC4=CC(=O)C=C[C@]4(C)[C@@]3(F)[C@@H](O)C[C@]2(C)[C@@]1(O)C(=O)CO [DEXAMETHASONE] : 97.7%
C=C1[C@@H]2CC[C@@H]3C[C@@]2(C[C@@H](O)[C@@]2(O)[C@H]1C[C@H](O)C2(C)C)C[C@@]3(C)O : 96.4%
C=C1[C@@H]2[C@@H](O)[C@H](O)C(C)(C)[C@@]2(O)[C@H](O)C[C@]23C[C@@](C)(O)[C@H](CC[C@@H]12)[C@H]3O : 98.1%
CC(=O)O[C@@H]1C[C@]23C[C@@](C)(O)[C@H](CC[C@H]2[C@@](C)(O)[C@@H]2[C@@H](Cl)[C@H](O)C(C)(C)[C@@]12O)[C@H]3O : 99.3%
CC(=O)O[C@@H]1C[C@]23C[C@@](C)(O)[C@H](CC[C@H]2[C@@](C)(O)[C@@H]2[C@@H]4O[C@@H]4C(C)(C)[C@@]12O)[C@H]3O : 101%

Ask: Given the entry CC(=O)O[C@@H]1C[C@]23C[C@@](C)(O)[C@H](CC[C@H]2[C@@](C)(O)[C@@H]2[C@@H](O)[C@H](O)C(C)(C)[C@@]12O)[C@H]3O , report its measured viability at 200 µM.
Reply: 98.8%

Ask: Next record, please: CO[C@H]1[C@H](O)C(C)(C)[C@@]2(O)[C@H](OC(C)=O)C[C@]34C[C@@](C)(O)[C@H](CC[C@H]3[C@@](C)(O)[C@H]12)[C@H]4O
Reply: 98.3%

###

assay: Cytotoxicity against mouse RAW264.7 cells assessed as survival rate at 200 uM measured in presence of LPS by MTT assay relative to control; format: cell-based; details: read-out: Survival
experimental.readout: viability at 200 µM (%)
Return type: number; implicit unit %.

Look over these answered cases.
CC(=O)O[C@@H]1C[C@]23C[C@@](C)(OC(C)=O)[C@H](CC[C@H]2[C@@](C)(O)[C@@H]2[C@@H]4O[C@@H]4C(C)(C)[C@@]12O)[C@H]3O : 99.7
CC(=O)O[C@@H]1[C@H]2CC[C@H]3[C@@](C)(O)[C@@H]4[C@@H](O)[C@H](O)C(C)(C)[C@@]4(O)[C@H](OC(C)=O)C[C@@]13C[C@@]2(C)O : 93.9
C=C1[C@@H]2[C@@H](O)[C@H](O)C(C)(C)[C@@]2(O)[C@H](O)C[C@]23C[C@@](C)(O)[C@H](CC[C@@H]12)[C@H]3O : 97.5

Ask: Given the entry CC1(C)[C@H]2O[C@H]2[C@H]2[C@](C)(O)[C@@H]3CC[C@@H]4[C@@H](O)[C@@]3(C[C@@H](O)[C@@]21O)C[C@@]4(C)O , report its measured viability at 200 µM.
Reply: 98.4

Ask: Next record, please: CO[C@H]1[C@H](O)C(C)(C)[C@@]2(O)[C@H](OC(C)=O)C[C@]34C[C@@](C)(O)[C@H](CC[C@H]3[C@@](C)(O)[C@H]12)[C@H]4O
Reply: 97.3

Numbers sourced from ChEMBL document CHEMBL4130603.
